# Tested on: SK-MEL-5 melanoma
# Experiment: NCI tumour cell line growth inhibition, 48 h; in the data active = GI50 below about 0.43 µM; inactive = the rest
Write down the outcome that applies. Available outcomes: true (1) (active), false (0) (inactive)

These solved cases illustrate the format of a correct answer.
[in] Each compound tested received a call. Report the one for NCCOc1ncccc1/C=C1\C2C=CC=CC2C2C=CC(F)=CC12 (centres undefined) .
[out] false (0)

[in] // same read-out, input: "COC(=O)c1ccc([C@H]2c3[nH]c4ccccc4c3C[C@H](C(=O)OC)N2C(=O)CCl)cc1"
[out] false (0)

Further cases:
[in] Each compound tested received a call. Report the one for "O=C(N/N=C\c1cc(Cl)ccc1O)c1ccncc1" .
[out] false (0)

[in] // same read-out, input: "O=c1c2c3c(sc2n2c(CCl)nnc2n1Cc1ccccc1)CCCC3"
[out] false (0)

[in] // same read-out, input: "COc1cc2c3c(n(CCCN(C)C)c(=O)c2cc1OC)-c1cc2c(cc1C3=O)OCO2"
[out] false (0)

[in] // same read-out, input: "N#Cc1ccccc1C#C/C=C\C#Cc1cccs1"
[out] false (0)

[in] // same read-out, input: "COc1cc2c3c(n(CCCNCCCNCCCn4c5c(c6cc(OC)c(OC)cc6c4=O)C(=O)c4ccccc4-5)c(=O)c2cc1OC)-c1ccccc1C3=O"
[out] false (0)

[in] // same read-out, input: NCCSCC(N)C(=O)O (centres undefined)
[out] false (0)

[in] // same read-out, input: "N#CCCN1C/C(=C/c2ccccc2)C(=O)/C(=C/c2ccccc2)C1"
[out] false (0)

[in] // same read-out, input: "CO/N=C/C=C\C(=O)N/C=C/C[C@H]1/C=C/[C@H](O)/C=C\C=C\c2cccc(O)c2C(=O)O1"
[out] true (1)

[in] // same read-out, input: "c1cc2ccc3cc2cc1CNCCN1CCNCc2ccc4ccc(cc4c2)CNCCN(CCNC3)CCNCc2ccc3ccc(cc3c2)CNCC1"
[out] false (0)

[in] // same read-out, input: C[C@@H]1CCC2[C@@H](C)[C@@H](OC3CCC(O)CC3)OC3O[C@@]4(C)CCC1[C@]32OO4 (some centres undefined)
[out] false (0)

[in] // same read-out, input: "COc1cc(C(=O)/C=C/c2cc(-c3cc(OC)c(OC)c(OC)c3)n[nH]2)cc(OC)c1OC"
[out] false (0)

[in] // same read-out, input: "COc1ccc(C(=O)NCCNc2nccc(-c3c(-c4ccc(F)cc4)nc4sccn34)n2)cc1"
[out] false (0)

* * *

# Tested on: MDA-MB-231 breast
# Experiment: NCI tumour cell line growth inhibition, 48 h
Measured GI50 accompanies every entry in the list below.

// solved cases for GI50 follow
[in] Which GI50 is reported for this compound? "Cn1cc(-c2ccc(-c3cn(C)c4ncccc34)[nH]2)c2cccnc21"
[out] 1790 nM

[in] // same read-out, input: "COc1ccc2[nH]c(C(=O)N3CCN(C(=O)OCc4ccc5c(Br)cc(Br)c(O)c5n4)CC3)cc2c1"
[out] 388 nM

[in] // same read-out, input: C=CCCCC(=O)CCC(=O)OCC1O[C@@H](O[C@@H]2C(O)[C@@H](OC(C)=O)C(C)O[C@H]2O[C@H](CC=C)CCCCC)C(O)[C@@H](OC(=O)/C(C)=C/C)[C@@H]1OC(=O)/C=C/c1ccccc1 (stereo not given in full)
[out] 8.66 nM

Further cases:
[in] Which GI50 is reported for this compound? "Cc1c(-c2ccc(O)c(O)c2)oc(=O)c2c(O)cc(O)cc12"
[out] 86800 nM

[in] // same read-out, input: COc1ccc(C(=O)C2C(C#N)C(C#N)C3C=Cc4ccccc4N32)cc1 (stereo not given)
[out] 1460 nM
